Reported % Inhibition (3.3 uM) values follow for various molecules
Test system: Cryptosporidium parvum
Protocol description: qRT-PCR assay of the growth of C. parvum in vitro in HCT-8 host cells (primary and secondary screening, EC50)
Assay type: cell-based
Run conditions: secondary screening at 3.3 uM
Parameter measured: % Inhibition (3.3 uM) (%)

1) O=c1ccn([C@@H]2O[C@H](COP(=O)([O-])OP(=O)([O-])OP(=O)([O-])O)[C@@H](O)[C@H]2O)c(=O)[nH]1.[Na+].[Na+].[Na+] [URIDINE TRIPHOSPHATE TRISODIUM]    17
2) CC1(C)C=Cc2c(c3c(c4c(=O)c(-c5ccc(O)cc5)coc24)OC(C)(C)CC3)O1    39
3) CC1(C)C2CC(=O)[C@]3(C)C(CC[C@@]4(C)[C@H](c5ccoc5)OC(=O)C5OC543)[C@@]2(C)[C@@H](O)C[C@H]1O (stereo partly shown)    3
4) COc1cc([C@@H]2c3cc4c(cc3[C@H](OC(C)=O)[C@H]3COC(=O)[C@H]23)OCO4)cc(OC)c1OC [PODOPHYLLIN ACETATE]    64
5) COc1ccc([C@@H]2CC(=O)c3c(O)cc(O[C@@H]4O[C@H](CO[C@@H]5O[C@@H](C)[C@H](O)[C@@H](O)[C@H]5O)[C@@H](O)[C@H](O)[C@H]4O)cc3O2)cc1O    36
6) CC(=O)O[C@@H]1CC2C(C)(CC[C@H](O)C2(C)C)C2CC[C@]3(C)C(=CC(=O)O[C@H]3c3ccoc3)C21C (stereo partly drawn) [3beta-HYDROXYDEOXODIHYDRODEOXYGEDUNIN]    -21
7) CS(C)(=O)=O    61
8) COC(=O)/C(C)=C\CC12OC(C)(C)C3CC(C=C4C(=O)c5c(c(CCC(C)(C)Cl)c6c(c5OC)C5CC(C)(CCC5=C(C)C)O6)OC431)C2=O (stereo not shown) [DIMETHYL GAMBOGINATE]    47
9) NCCc1ccc(O)c(O)c1 [3-HYDROXYTYRAMINE]    6
10) COc1ccc(-c2oc3cc(OC)c(OC)c(OC)c3c(=O)c2OC)cc1OC    -42
